For each entry below, report its activity coefficient value.
measurement-protocol: activity coefficient (dimensionless); of the first substance listed, at infinite dilution; xn = mol fraction of the nth substance listed
cond: 353.15 K; 101.33 kPa; Liquid; Chromatography; x1 = 0
Enter the number alone.

Lab book: activity coefficient of CCCCCO [pentan-1-ol] + CCC[n+]1ccn(C)c1.[Br-] noted as 0.592

Lab book: activity coefficient of CCCCCCC [heptane] + CCC[n+]1ccn(C)c1.[Br-] noted as 95.4

Lab book: activity coefficient of CC(C)=O [acetone] + CCC[n+]1ccn(C)c1.[Br-] noted as 1.29

Lab book: activity coefficient of C1CCCCC1 [cyclohexane] + CCC[n+]1ccn(C)c1.[Br-] noted as 61.6

Lab book: activity coefficient of Cc1ccccc1C [1,2-dimethylbenzene] + CCC[n+]1ccn(C)c1.[Br-] noted as 4.71

====

measurement-protocol: activity coefficient (dimensionless); of the first substance listed, at infinite dilution; xn = mol fraction of the nth substance listed
cond: 323.15 K; 101.33 kPa; Liquid; Chromatography; x1 = 0
Values of activity coefficient greater than or equal to 1 map to Yes; values below map to No.

Task: Please tell me: is the compound Cc1ccccc1 [toluene] + CCC[n+]1ccn(C)c1.[Br-] at or over 1 in terms of activity coefficient?
Output: Yes

Task: Please tell me: is the compound ClC(Cl)Cl [trichloromethane] + CCC[n+]1ccn(C)c1.[Br-] at or over 1 in terms of activity coefficient?
Output: No

Task: Please tell me: is the compound CCCCCCC [heptane] + CCC[n+]1ccn(C)c1.[Br-] at or over 1 in terms of activity coefficient?
Output: Yes

Task: Please tell me: is the compound CC(C)O [propan-2-ol] + CCC[n+]1ccn(C)c1.[Br-] at or over 1 in terms of activity coefficient?
Output: No

Task: Please tell me: is the compound CCO [ethanol] + CCC[n+]1ccn(C)c1.[Br-] at or over 1 in terms of activity coefficient?
Output: No

Task: Please tell me: is the compound CC(C)CO [2-methyl-1-propanol] + CCC[n+]1ccn(C)c1.[Br-] at or over 1 in terms of activity coefficient?
Output: No

Task: Please tell me: is the compound CCCO [propan-1-ol] + CCC[n+]1ccn(C)c1.[Br-] at or over 1 in terms of activity coefficient?
Output: No

Task: Please tell me: is the compound CCc1ccccc1 [ethylbenzene] + CCC[n+]1ccn(C)c1.[Br-] at or over 1 in terms of activity coefficient?
Output: Yes

Task: Please tell me: is the compound C=Cc1ccccc1 [styrene] + CCC[n+]1ccn(C)c1.[Br-] at or over 1 in terms of activity coefficient?
Output: Yes

Task: Please tell me: is the compound CC(C)=O [acetone] + CCC[n+]1ccn(C)c1.[Br-] at or over 1 in terms of activity coefficient?
Output: Yes

====

measurement-protocol: activity coefficient (dimensionless); of the first substance listed, at infinite dilution; xn = mol fraction of the nth substance listed
cond: 353.15 K; 101.33 kPa; Liquid; Chromatography; x1 = 0
For each entry below, report its activity coefficient value.

Lab book: activity coefficient of CCCO [propan-1-ol] + CCC[n+]1ccn(C)c1.[Br-] noted as 0.25

Lab book: activity coefficient of CCCCCCCCC [nonane] + CCC[n+]1ccn(C)c1.[Br-] noted as 106

Lab book: activity coefficient of CC#N [acetonitrile] + CCC[n+]1ccn(C)c1.[Br-] noted as 0.44

Lab book: activity coefficient of c1ccccc1 [benzene] + CCC[n+]1ccn(C)c1.[Br-] noted as 2

Lab book: activity coefficient of ClC(Cl)Cl [trichloromethane] + CCC[n+]1ccn(C)c1.[Br-] noted as 0.18

====

measurement-protocol: activity coefficient (dimensionless); of the first substance listed, at infinite dilution; xn = mol fraction of the nth substance listed
cond: 343.15 K; 101.33 kPa; Liquid; Chromatography; x1 = 0
For each entry below, report its activity coefficient value.
Enter the number alone.

Lab book: activity coefficient of CCCO [propan-1-ol] + CCC[n+]1ccn(C)c1.[Br-] noted as 0.258

Lab book: activity coefficient of CCCCCCCCCC [decane] + CCC[n+]1ccn(C)c1.[Br-] noted as 118

Lab book: activity coefficient of C1CCOC1 [tetrahydrofuran] + CCC[n+]1ccn(C)c1.[Br-] noted as 2.28

Lab book: activity coefficient of ClCCl [dichloromethane] + CCC[n+]1ccn(C)c1.[Br-] noted as 0.31

Lab book: activity coefficient of CC(C)=O [acetone] + CCC[n+]1ccn(C)c1.[Br-] noted as 1.21

====

measurement-protocol: activity coefficient (dimensionless); of the first substance listed, at infinite dilution; xn = mol fraction of the nth substance listed
cond: 323.15 K; 101.33 kPa; Liquid; Chromatography; x1 = 0
Values of activity coefficient greater than or equal to 4 map to condition met; values below map to condition not met.

Task: Please tell me: is the compound C1CCOC1 [tetrahydrofuran] + CCC[n+]1ccn(C)c1.[Br-] at or over 4 in terms of activity coefficient?
Output: condition not met

Task: Please tell me: is the compound CCCCO [butan-1-ol] + CCC[n+]1ccn(C)c1.[Br-] at or over 4 in terms of activity coefficient?
Output: condition not met

Task: Please tell me: is the compound CC(C)CCO [3-methylbutan-1-ol] + CCC[n+]1ccn(C)c1.[Br-] at or over 4 in terms of activity coefficient?
Output: condition not met

Task: Please tell me: is the compound CO [methanol] + CCC[n+]1ccn(C)c1.[Br-] at or over 4 in terms of activity coefficient?
Output: condition not met

Task: Please tell me: is the compound CCCCCO [pentan-1-ol] + CCC[n+]1ccn(C)c1.[Br-] at or over 4 in terms of activity coefficient?
Output: condition not met

Task: Please tell me: is the compound CCC(C)O (stereo not drawn) [butan-2-ol] + CCC[n+]1ccn(C)c1.[Br-] at or over 4 in terms of activity coefficient?
Output: condition not met

Task: Please tell me: is the compound C1COCCO1 [1,4-dioxane] + CCC[n+]1ccn(C)c1.[Br-] at or over 4 in terms of activity coefficient?
Output: condition not met

Task: Please tell me: is the compound ClC(Cl)(Cl)Cl [tetrachloromethane] + CCC[n+]1ccn(C)c1.[Br-] at or over 4 in terms of activity coefficient?
Output: condition not met

Task: Please tell me: is the compound CCOC(C)=O [ethyl acetate] + CCC[n+]1ccn(C)c1.[Br-] at or over 4 in terms of activity coefficient?
Output: condition not met

Task: Please tell me: is the compound CCCCCCCC [octane] + CCC[n+]1ccn(C)c1.[Br-] at or over 4 in terms of activity coefficient?
Output: condition met

Task: Please tell me: is the compound C1=CCCCC1 [cyclohexene] + CCC[n+]1ccn(C)c1.[Br-] at or over 4 in terms of activity coefficient?
Output: condition met

Task: Please tell me: is the compound CC(C)CC(C)(C)C [2,2,4-trimethylpentane] + CCC[n+]1ccn(C)c1.[Br-] at or over 4 in terms of activity coefficient?
Output: condition met

Task: Please tell me: is the compound ClCCl [dichloromethane] + CCC[n+]1ccn(C)c1.[Br-] at or over 4 in terms of activity coefficient?
Output: condition not met

Task: Please tell me: is the compound CC1CCCCC1 [methylcyclohexane] + CCC[n+]1ccn(C)c1.[Br-] at or over 4 in terms of activity coefficient?
Output: condition met

Task: Please tell me: is the compound Cc1ccc(C)cc1 [1,4-dimethylbenzene] + CCC[n+]1ccn(C)c1.[Br-] at or over 4 in terms of activity coefficient?
Output: condition met

Task: Please tell me: is the compound C1CCCCC1 [cyclohexane] + CCC[n+]1ccn(C)c1.[Br-] at or over 4 in terms of activity coefficient?
Output: condition met

Task: Please tell me: is the compound CC#N [acetonitrile] + CCC[n+]1ccn(C)c1.[Br-] at or over 4 in terms of activity coefficient?
Output: condition not met

Task: Please tell me: is the compound Cc1ccccc1C [1,2-dimethylbenzene] + CCC[n+]1ccn(C)c1.[Br-] at or over 4 in terms of activity coefficient?
Output: condition met

Task: Please tell me: is the compound Cc1cccc(C)c1 [1,3-dimethylbenzene] + CCC[n+]1ccn(C)c1.[Br-] at or over 4 in terms of activity coefficient?
Output: condition met

Task: Please tell me: is the compound c1ccccc1 [benzene] + CCC[n+]1ccn(C)c1.[Br-] at or over 4 in terms of activity coefficient?
Output: condition not met

Task: Please tell me: is the compound CCCCCC [hexane] + CCC[n+]1ccn(C)c1.[Br-] at or over 4 in terms of activity coefficient?
Output: condition met

Task: Please tell me: is the compound CCCCCCCCCC [decane] + CCC[n+]1ccn(C)c1.[Br-] at or over 4 in terms of activity coefficient?
Output: condition met

Task: Please tell me: is the compound CCCCCCCCC [nonane] + CCC[n+]1ccn(C)c1.[Br-] at or over 4 in terms of activity coefficient?
Output: condition met
